Test: Half life in rat at 2 mg/kg, iv
Assay type: ADME, organism-based
Settings: in vivo
measuredQuantity: half-life (min)
Numbers only, in min.

Consider CCOC(=O)C1=C(NN2CCN(CC(F)(F)F)CC2)O/C(=C\c2c[nH]c3ncccc23)C1=O [MONZOSERTIB] . Its measured half-life is 181

---

Molecular target: UniProtKB O00311
Sequence (O00311 whole entry): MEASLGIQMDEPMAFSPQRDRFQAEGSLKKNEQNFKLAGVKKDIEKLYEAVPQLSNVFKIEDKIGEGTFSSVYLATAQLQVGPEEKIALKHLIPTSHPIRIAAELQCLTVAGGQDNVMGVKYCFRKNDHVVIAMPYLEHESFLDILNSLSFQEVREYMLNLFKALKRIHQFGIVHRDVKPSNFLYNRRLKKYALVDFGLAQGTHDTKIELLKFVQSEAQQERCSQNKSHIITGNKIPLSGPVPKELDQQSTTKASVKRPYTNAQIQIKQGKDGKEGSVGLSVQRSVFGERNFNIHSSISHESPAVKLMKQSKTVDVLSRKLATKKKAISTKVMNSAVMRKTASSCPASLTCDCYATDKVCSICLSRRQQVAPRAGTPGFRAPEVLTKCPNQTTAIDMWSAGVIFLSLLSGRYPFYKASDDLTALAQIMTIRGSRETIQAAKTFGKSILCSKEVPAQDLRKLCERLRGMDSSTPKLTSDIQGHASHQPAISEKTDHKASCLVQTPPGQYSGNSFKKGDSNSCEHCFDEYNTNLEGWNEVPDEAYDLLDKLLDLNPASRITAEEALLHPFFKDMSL
Test: Inhibition of CDC7 in human SW-620 cells assessed as reduction in phosphorylation of MCM2 at Ser53 residue incubated for 48 hrs by Western blot analysis
Assay type: cell-based
measuredQuantity: IC50
Your reply should be a number followed by the unit it is expressed in.

The reported IC50 value, UniProtKB O00311, for CCOC(=O)C1=C(NN2CCN(CC(F)(F)F)CC2)O/C(=C\c2c[nH]c3ncccc23)C1=O [MONZOSERTIB] reads 53 nM
